// viability, T/C lookup, one value per entry
- Tested on: 292921-168-R tumor spheroid viability
- experiment description: Anticancer human tumor 292921-168-R patient-derived pancreatic carcinoma cell line growth inhibition
- applied conditions: second compound 30 pM; first compound 3 µM; stronger effect = lower value; spheroids with HUVEC and MSC
- Method: Multicellular complex tumor spheroid response to DNA repair inhibitors in combination with DNA-damaging drugs This study explores the anticancer activities of DNA-damaging drugs and inhibitors of DNA damage repair, both as single agents and in combinations. […] Twenty-six patient-derived or established malignant cell lines were evaluated representing sarcoma, melanoma, small cell lung cancer (SCLC), non-small cell lung cancer (NSCLC), as well as bladder, ovarian and pancreatic cancers. […]
measured property: viability, T/C (%)

molecule: Cc1sc2c(c1C)C(c1ccc(Cl)cc1)=NC(CC(=O)Nc1ccc(O)cc1)c1nnc(C)n1-2 (centres undefined) + COc1cc2c(cc1O)CCNC21CSC2c3c(OC(C)=O)c(C)c4c(c3C(COC1=O)N1C(O)C3Cc5cc(C)c(OC)c(O)c5C(C21)N3C)OCO4
measured property: viability, T/C
units: %
reported measurement: 36.5

molecule: CNCc1ccc(-c2cc(-c3nc(-c4ccc(S(=O)(=O)C(C)C)cc4)cnc3N)on2)cc1 + COc1cc2c(cc1O)CCNC21CSC2c3c(OC(C)=O)c(C)c4c(c3C(COC1=O)N1C(O)C3Cc5cc(C)c(OC)c(O)c5C(C21)N3C)OCO4
measured property: viability, T/C
units: %
reported measurement: 13.2

molecule: O=C(c1cc(Cc2n[nH]c(=O)c3ccccc23)ccc1F)N1CCN(C(=O)C2CC2)CC1 + COc1cc2c(cc1O)CCNC21CSC2c3c(OC(C)=O)c(C)c4c(c3C(COC1=O)N1C(O)C3Cc5cc(C)c(OC)c(O)c5C(C21)N3C)OCO4
measured property: viability, T/C
units: %
reported measurement: 91.9

molecule: Cn1ncnc1[C@H]1c2n[nH]c(=O)c3cc(F)cc(c23)N[C@@H]1c1ccc(F)cc1 + COc1cc2c(cc1O)CCNC21CSC2c3c(OC(C)=O)c(C)c4c(c3C(COC1=O)N1C(O)C3Cc5cc(C)c(OC)c(O)c5C(C21)N3C)OCO4
measured property: viability, T/C
units: %
reported measurement: 11.9

----------
- Tested on: 292921-168-R tumor spheroid viability
- experiment description: Anticancer human tumor 292921-168-R cell line growth inhibition;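 also: spheroids exposed to compounds for 7 days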
- applied conditions: second compound 1 µM; first compound 10 µM; stronger effect = lower value; spheroids with HUVEC and MSC
// viability, T/C lookup, one value per entry

compound: [2H]c1nc(C)nc([2H])c1-c1cc(NC[C@@H](C)c2cccc3c(C(=O)NC)ccnc23)ncn1 + Cn1nnc2c(C(N)=O)ncn2c1=O
assayed target: 292921-168-R tumor spheroid viability
units: %
viability, T/C: 71.8
//
compound: Cc1cc(C)c(CNC(=O)c2cc(-c3ccc(CN4CCOCC4)cc3)cc3c2cnn3C2CCCC2)c(=O)[nH]1 + Cn1nnc2c(C(N)=O)ncn2c1=O
assayed target: 292921-168-R tumor spheroid viability
units: %
viability, T/C: 54.3
//
compound: CC(C)n1c(=O)n(C)c2cnc3cc(F)c(-c4ccc(OCCCN5CCCCC5)nc4)cc3c21 + Cn1nnc2c(C(N)=O)ncn2c1=O
assayed target: 292921-168-R tumor spheroid viability
units: %
viability, T/C: 26
//
compound: COc1ccc([C@@H](O)c2cc(-c3ncnc4cc(N5CCOCC5)ccc34)c(F)cc2Cl)nn1 + Cn1nnc2c(C(N)=O)ncn2c1=O
assayed target: 292921-168-R tumor spheroid viability
units: %
viability, T/C: 17.9
//
compound: COc1cc(C)[nH]c(=O)c1CN1CCc2c(Cl)cc(C(OC)C3COC3)c(Cl)c2C1=O (stereo unspecified) + Cn1nnc2c(C(N)=O)ncn2c1=O
assayed target: 292921-168-R tumor spheroid viability
units: %
viability, T/C: 72.6
//
compound: CC1COCCN1c1cc(-c2ccnn2C)c2ccnc(-c3ccn[nH]3)c2n1 (stereo unspecified) + Cn1nnc2c(C(N)=O)ncn2c1=O
assayed target: 292921-168-R tumor spheroid viability
units: %
viability, T/C: 15.8

----------
- System: 292921-168-R tumor spheroid viability
- experiment description: Anticancer human tumor 292921-168-R cell line growth inhibition;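 also: spheroids exposed to compounds for 7 days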
- applied conditions: second compound 3.16 µM; first compound 0.316 µM; stronger effect = lower value; spheroids with HUVEC and MSC
// viability, T/C lookup, one value per entry

compound: COc1cc(C)[nH]c(=O)c1CN1CCc2c(Cl)cc(C(OC)C3COC3)c(Cl)c2C1=O (stereo not given) + Cn1nnc2c(C(N)=O)ncn2c1=O
viability, T/C (%): 93.6

compound: [2H]c1nc(C)nc([2H])c1-c1cc(NC[C@@H](C)c2cccc3c(C(=O)NC)ccnc23)ncn1 + Cn1nnc2c(C(N)=O)ncn2c1=O
viability, T/C (%): 90.6

compound: CC1COCCN1c1cc(-c2ccnn2C)c2ccnc(-c3ccn[nH]3)c2n1 (stereo not given) + Cn1nnc2c(C(N)=O)ncn2c1=O
viability, T/C (%): 14.5

compound: CC(C)n1c(=O)n(C)c2cnc3cc(F)c(-c4ccc(OCCCN5CCCCC5)nc4)cc3c21 + Cn1nnc2c(C(N)=O)ncn2c1=O
viability, T/C (%): 85.6

compound: Cc1cc(C)c(CNC(=O)c2cc(-c3ccc(CN4CCOCC4)cc3)cc3c2cnn3C2CCCC2)c(=O)[nH]1 + Cn1nnc2c(C(N)=O)ncn2c1=O
viability, T/C (%): 94.9

----------
- Test system: 292921-168-R tumor spheroid viability
- experiment description: Anticancer human tumor 292921-168-R cell line growth inhibition;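 also: spheroids exposed to compounds for 7 days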
- applied conditions: curve of first compound; second compound 31.6 µM; spheroids with HUVEC and MSC
pIC50: −log10 of the molar value.

molecule: CNCc1ccc(-c2cc(-c3nc(-c4ccc(S(=O)(=O)C(C)C)cc4)cnc3N)on2)cc1 + Cn1nnc2c(C(N)=O)ncn2c1=O
pIC50: 6.75
//
molecule: Cn1ncnc1[C@H]1c2n[nH]c(=O)c3cc(F)cc(c23)N[C@@H]1c1ccc(F)cc1 + Cn1nnc2c(C(N)=O)ncn2c1=O
pIC50: 7.72
//
molecule: COc1ccc([C@@H](O)c2cc(-c3ncnc4cc(N5CCOCC5)ccc34)c(F)cc2Cl)nn1 + Cn1nnc2c(C(N)=O)ncn2c1=O
pIC50: 5.94
//
molecule: CC(C)n1c(=O)n(C)c2cnc3cc(F)c(-c4ccc(OCCCN5CCCCC5)nc4)cc3c21 + Cn1nnc2c(C(N)=O)ncn2c1=O
pIC50: 5.33

----------
- Test system: 292921-168-R tumor spheroid viability
- experiment description: Anticancer human tumor 292921-168-R cell line growth inhibition;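 also: spheroids exposed to compounds for 7 days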
- applied conditions: curve of first compound; second compound 0.03 µM; spheroids with HUVEC and MSC
- Description: Multicellular complex tumor spheroid response to DNA repair inhibitors in combination with DNA-damaging drugs This study explores the anticancer activities of DNA-damaging drugs and inhibitors of DNA damage repair, both as single agents and in combinations. […] Twenty-six patient-derived or established malignant cell lines were evaluated representing sarcoma, melanoma, small cell lung cancer (SCLC), non-small cell lung cancer (NSCLC), as well as bladder, ovarian and pancreatic cancers. […]
measured property: IC50

compound: Cc1cc(C)c(CNC(=O)c2cc(-c3ccc(CN4CCOCC4)cc3)cc3c2cnn3C2CCCC2)c(=O)[nH]1 + CC[C@@]1(O)C(=O)OCc2c1cc1n(c2=O)Cc2cc3c(CN(C)C)c(O)ccc3nc2-1
assayed target: 292921-168-R tumor spheroid viability
reported measurement: < 31.6 nM

compound: O=C(c1cc(Cc2n[nH]c(=O)c3ccccc23)ccc1F)N1CCN(C(=O)C2CC2)CC1 + CC[C@@]1(O)C(=O)OCc2c1cc1n(c2=O)Cc2cc3c(CN(C)C)c(O)ccc3nc2-1
assayed target: 292921-168-R tumor spheroid viability
reported measurement: < 94.9 nM

compound: COc1cc(C)[nH]c(=O)c1CN1CCc2c(Cl)cc(C(OC)C3COC3)c(Cl)c2C1=O (stereo not given) + CC[C@@]1(O)C(=O)OCc2c1cc1n(c2=O)Cc2cc3c(CN(C)C)c(O)ccc3nc2-1
assayed target: 292921-168-R tumor spheroid viability
reported measurement: 394 nM

compound: [2H]c1nc(C)nc([2H])c1-c1cc(NC[C@@H](C)c2cccc3c(C(=O)NC)ccnc23)ncn1 + CC[C@@]1(O)C(=O)OCc2c1cc1n(c2=O)Cc2cc3c(CN(C)C)c(O)ccc3nc2-1
assayed target: 292921-168-R tumor spheroid viability
reported measurement: < 31.6 nM

compound: CC(C)n1c(=O)n(C)c2cnc3cc(F)c(-c4ccc(OCCCN5CCCCC5)nc4)cc3c21 + CC[C@@]1(O)C(=O)OCc2c1cc1n(c2=O)Cc2cc3c(CN(C)C)c(O)ccc3nc2-1
assayed target: 292921-168-R tumor spheroid viability
reported measurement: < 31.6 nM
